Tested on: NCI-H460 lung
Respond using exactly one of the listed classes: active, inactive

Exercise: Dear colleague, could you share the recorded outcome for CCC[CH2][Sn]([CH2]CCC)([S]c1cccc2cccnc12)[S]c1cccc2cccnc12 when you have a moment?
Key: active

Exercise: What call does the record list for Nc1ccccc1C#C/C=C\C#Cc1ccccc1OC(F)(F)F ?
Key: inactive

Exercise: Answer briefly: the call reported for CC1CCC(n2c3cnccc3c3cnc(Nc4ccc5c(n4)CCN(C(=O)CO)C5)nc32)CC1 (stereo not drawn) in this assay.
Key: active

Exercise: Each compound tested received a call. Report the one for CN1CCCCC1CCN1c2ccccc2Sc2ccc(Cl)cc21 (stereo not drawn) .
Key: inactive

Exercise: What outcome does the record of this test show for O=C(NC(=O)c1ccccc1[N+](=O)[O-])Nc1ccc(Oc2ncc(Br)cn2)c(Cl)c1 ?
Key: active

Exercise: Which outcome was assigned to COc1cnc2c(c1)C(=O)c1c-2n(CCCN2CCOCC2)c(=O)c2cc(F)ccc12 in this test?
Key: active

Exercise: Answer briefly: the call reported for CCOC1Oc2ccccc2C(=O)/C1=C/Nc1ccc(C(C)=O)cc1 (stereo not drawn) in this assay.
Key: inactive

Exercise: Give the logged outcome of this assay for the following compound: CCN1/C(=C\c2cc[n+](CC)c3ccccc23)C=Cc2ccccc21
Key: active

Exercise: For this compound, state the assay outcome: CC(=O)[CH-]C(=O)c1ccccc1.CC(=O)[CH-]C(=O)c1ccccc1.CN(C)c1ccc([O-])cc1.CN(C)c1ccc([O-])cc1.Cl.[Ti+4]
Key: inactive

Exercise: For this compound, state the assay outcome: COc1cc2c(cc1OCCCCN1CCN(CC(=O)Nc3ccc(Cl)cc3C(=O)c3ccccc3Cl)CC1)N=CC1CCCN1C2=O (stereo not drawn)
Key: active

Exercise: Given Cc1ccnc2c1ccc1c(C)ccnc12 , state the outcome it received in this test.
Key: active

Exercise: Recorded call for Nc1nc(-n2c(-c3ccccc3)nc3c(Br)cc(Br)cc3c2=O)nnc1-c1cccc(Cl)c1Cl ?
Key: inactive

Exercise: Identify the outcome logged in this assay for the compound shown: O=C(Nc1ccc(F)cc1)Nc1ccc(Cl)c([N+](=O)[O-])c1
Key: inactive

###

Can you tell me TGI for the items I'm about to list?
Tested on: HOP-92 NSCLC
Test: NCI tumour cell line growth inhibition, 48 h
# value in µM; strip the unit string

Exercise: Using the record for CC(C)=CCc1c2c(c3occ(-c4ccc(O)cc4)c(=O)c3c1O)CC(C(C)(C)O)O2 (stereo not given) , report its TGI.
Key: 33.5

Exercise: For the compound CC(=O)OC1CC(OC2C(O)CC(OC3C(O)CC(OC4CCC5(C)C(CCC6C5CC(O)C5(C)C(C7=CC(=O)OC7)CCC65O)C4)OC3C)OC2C)OC(C)C1OC1OC(CO)C(O)C(O)C1O (stereo not given) , what TGI is on record?
Key: 0.517

Exercise: Param item = Cc1ccsc1C(=S)Nc1ccc(Cl)c(/C=N/OC(C)(C)C)c1 ; retrieve measured TGI.
Key: 48.8

Exercise: Which TGI is reported for this compound? CC(C)(C)N1CSC(=S)N(Cc2ccco2)C1
Key: 12.1

Exercise: GET /values?readout=TGI&item= O=C1CCCc2cc3c(cc21)CC1(Cc2ccccc2C1)C3
Key: 53

Exercise: Returns the measured TGI for the input compound. Input: O=[N+]([O-])c1cccc(-c2csc(NNC3=NC/C(=C/c4ccc5c(c4)OCO5)S3)n2)c1
Key: 43.7
